# subject-of-test: T1, recombinant human trimeric ARG2 enzyme (construct not given) (human, UniProt P78540 23-354)
# T1 sequence (looked up): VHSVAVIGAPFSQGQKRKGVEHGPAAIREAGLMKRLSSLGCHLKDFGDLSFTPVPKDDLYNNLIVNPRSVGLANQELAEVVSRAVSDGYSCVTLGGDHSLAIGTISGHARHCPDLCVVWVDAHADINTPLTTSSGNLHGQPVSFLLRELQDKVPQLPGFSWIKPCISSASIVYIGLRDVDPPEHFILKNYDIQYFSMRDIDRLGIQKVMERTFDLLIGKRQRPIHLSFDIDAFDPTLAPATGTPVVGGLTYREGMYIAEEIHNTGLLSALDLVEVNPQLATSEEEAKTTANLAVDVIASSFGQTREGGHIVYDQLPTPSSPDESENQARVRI
# method-summary: cell-based or functional assay
Answer each item with its documented Trimeric human ARG2 EIA IC50.
One number for each entry, in nM.

The cases that follow already have their Trimeric human ARG2 EIA IC50 on record.
- binder: "C0021032 scFv (scFv, V domains shown, scFv) VH: EVQLLESGGGLVQPGGSLRLSCAASGFTFSSYAMSWVRQAPGKGLEWVSAYGYGIGSTYYADSVKGRFTISRDNSKNTLYLQMNSLRAEDTAVYYCARLRADLGLYMDLWGRGTLVTVSS VL: QSVLTQPPSVSAAPGQKVTISCSGSSSNIGNHYVSWYQQLPGTAPKLLIYDNSERPSGIPDRFSGSKSGTSATLGITGLQTGDEADYYCGTWDSSLSALVFGGGTKLTVL"
  Trimeric human ARG2 EIA IC50 (nM): 211
- binder: "C0021131 scFv (scFv, V domains shown, scFv) VH: EVQLLESGGGLVQPGGSLRLSCAASGFTFPYDYMGWVRQAPGKGLEWVSAISGSGGSTYYADSVKGRFTISRDNSKNTLYLQMNSLRAEDTAVYYCARLRADLGLYMDLWGRGTLVTVSS VL: QSVLTQPPSVSAAPGQKVTISCSGSSSNIGNHYVSWYQQLPGTAPKLLIYDNSERPSGIPDRFSGSKSGTSATLGITGLQTGDEADYYCGTWDELTSNLVFGGGTKLTVL"
  Trimeric human ARG2 EIA IC50 (nM): 251

Continue with the binder presented below.
For the binder shown here, C0021129 scFv (scFv, V domains shown, scFv) VH: EVQLLESGGGLVRPGGSLRLSCAASGFTFSSYAMSWVRQAPGKGLEWVSAISGFSPFYADSVKGRFTISRDNSKNTLYLQMNSLRAEDTAVYYCARLRADLGLYMDLWGRGTLVTVSS VL: QSVLTQPPSVSAAPGQKVTISCSGSSSNIGNHYVSWYQQLPGTAPKLLIYDNSERPSGIPDRFSGSKSGTSATLDITGLQTGDEADYYCGTWDETAAELVFGGGTKLTVL , give the reported Trimeric human ARG2 EIA IC50.
313
